Target: T1, ROR1 Ig-like domain (human, UniProt Q01973 42-147)
T1 construct: also called Acro Cat. No. RO1-H5221
T1 sequence (Q01973 42-147): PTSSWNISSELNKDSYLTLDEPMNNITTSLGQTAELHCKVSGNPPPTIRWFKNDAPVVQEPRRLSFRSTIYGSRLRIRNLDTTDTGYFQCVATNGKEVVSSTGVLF
Assay: BLI, IgG1 on biosensor, soluble ROR1 domain
observed property: binding result

{"binder": "I2A-6 IgG1 (antibody, V domains shown, human IgG1) VH: EVQLVESGGGLVQPGGSLRLSCAASGFTFSLYAIHWVRQAPGKGLEWVAEIDSWLGYTYYADSVKGRFTISADTSKNTAYLQMNSLRAEDTAVYYCARRPVTEVYYSALDYWGQGTLVTVSS VL: DIQMTQSPSSLSASVGDRVTITCRASQSVSSAVAWYQQKPGKAPKLLIYSASSLYSGVPSRFSGSRSGTDFTLTISSLQPEDFATYYCQQYDRSLHTFGQGTKVEIK", "observed property": "binding result", "result": "binds"}
{"binder": "I2A-3 IgG1 (antibody, V domains shown, human IgG1) VH: EVQLVESGGGLVQPGGSLRLSCAASGFTFTSYEIHWVRQAPGKGLEWVAHIDPYGGYTQYADSVKGRFTISADTSKNTAYLQMNSLRAEDTAVYYCARRGVAVFDYWGQGTLVTVSS VL: DIQMTQSPSSLSASVGDRVTITCRASQSVSSAVAWYQQKPGKAPKLLIYSASSLYSGVPSRFSGSRSGTDFTLTISSLQPEDFATYYCQQWAYAPVTFGQGTKVEIK", "observed property": "binding result", "result": "binds"}
{"binder": "I2C-17 IgG1 (antibody, V domains shown, human IgG1) VH: EVQLVESGGGLVQPGGSLRLSCAASGFTFSDYFIHWVRQAPGKGLEWVAYIYPASGGTCYADSVKGRFTISADTSKNTAYLQMNSLRAEDTAVYYCARGYIPHMAALDYWGQGTLVTVSS VL: DIQMTQSPSSLSASVGDRVTITCRASQSVSSAVAWYQQKPGKAPKLLIYSASSLYSGVPSRFSGSRSGTDFTLTISSLQPEDFATYYCQQYYWWPGTFGQGTKVEIK", "observed property": "binding result", "result": "binds"}
